test system: SK-MEL-28 melanoma; assay: NCI-60 one-dose screen, 48 h (100 = growth as untreated, 0 = no growth, -100 = all killed); settings: 10 µM
Compounds without any hit were thinned out: in the full panel of roughly 83,000, 20% have a hit.
assay.endpoint: growth (%)

# molecule, system.under.test, readout.number
data = [
    ("CCOc1ccccc1/C=N\\N=C(\\N)N/N=C/c1ccccc1OCC", "SK-MEL-28 melanoma", 42.9),
    ("COC1OC(COS(=O)OC)C(O)C(O)C1OS(=O)OC (stereo unspecified)", "SK-MEL-28 melanoma", 110),
    ("O=C(CCC(C(=O)c1ccccc1)c1ccccc1)c1ccccc1 (stereo unspecified)", "SK-MEL-28 melanoma", 80.5),
    ("COc1cc(C2CC(c3ccccc3)=NN2C(C)=O)cc(OC)c1OC (stereo unspecified)", "SK-MEL-28 melanoma", 59.3),
    ("N#CC1=C(N)Oc2cc(N)ccc2C1c1cccnc1 (stereo unspecified)", "SK-MEL-28 melanoma", 102),
    ("CC1C(=NC(=O)c2cnccn2)C(C)C(c2ccc(Cl)cc2)NC1c1ccncc1 (stereo unspecified)", "SK-MEL-28 melanoma", 101),
    ("Nc1nc(Cl)nc2c1ncn2C1O[C@H](CO)[C@@H](O)[C@@H]1F (stereo partly specified)", "SK-MEL-28 melanoma", 73.8),
    ("O=[N+]([O-])c1ccc(NCSc2ccc(Cl)cc2)cc1", "SK-MEL-28 melanoma", 104),
    ("CCN(CC)CCOc1cccc2c1C(=O)c1ccccc1C2=O", "SK-MEL-28 melanoma", 111),
    ("O=C1CCn2c1c(O)c1ccccc1c2=O", "SK-MEL-28 melanoma", 107),
    ("Nc1cc(-c2ccncc2)c[nH]c1=O", "SK-MEL-28 melanoma", 105),
    ("CCc1ccc(C2=NN(c3ccc(S(C)(=O)=O)cc3)C(=O)CC2)cc1", "SK-MEL-28 melanoma", 50.7),
    ("C=CCN(CC=C)C(=O)[C@H](CC)[C@@H]1CC[C@@H](C)[C@@H]([C@H](C)[C@@H](O)[C@@H](C)C(=O)[C@H](CC)C2O[C@]3(C=C[C@@H](O)[C@]4(CC[C@@](C)([C@H]5CC[C@](O)(CC)[C@H](C)O5)O4)O3)[C@H](C)C[C@@H]2C)O1 (stereo partly specified)", "SK-MEL-28 melanoma", 33.9),
    ("OCCn1cccn1", "SK-MEL-28 melanoma", 117),
    ("COc1cc(-c2nn(-c3cccc(NC(=O)CCN4CCN(c5ccccc5)CC4)c3)cc2-c2ccncc2)ccc1Cl", "SK-MEL-28 melanoma", 28.9),
    ("Clc1ccc(Cc2ccncc2)cc1", "SK-MEL-28 melanoma", 112),
    ("Cc1ccc(/C=C/C(=O)C(=O)/C=C/c2ccc(C)cc2)cc1", "SK-MEL-28 melanoma", 108),
    ("COc1cc2c3c(n(C4CCN(C)CC4)c(=O)c2cc1OC)-c1cc2c(cc1C3=O)OCO2", "SK-MEL-28 melanoma", 107),
    ("O=C(NCCNC(=O)c1ccc(F)cc1)Nc1ccc(-n2cc(-c3ccncc3)c(-c3ccc(Cl)c(O)c3)n2)cc1", "SK-MEL-28 melanoma", 18.4),
    ("CCOC(=O)N/N=C/c1ccc(OC)c(OC)c1", "SK-MEL-28 melanoma", 107),
    ("CCC(=O)OC1CCC2C3CCC(=O)OC3C(C)(CCC(=O)O)CC12C (stereo unspecified)", "SK-MEL-28 melanoma", 59.8),
]

----------
test system: SF-268 CNS; experiment: NCI-60 one-dose screen, 48 h (100 = growth as untreated, 0 = no growth, -100 = all killed); details: 10 µM
This is part of a sample that, as a whole, favours compounds with a hit. Of some 83,000 tested, about 20% had one in any assay.
Entries whose growth is below 60% take 1; entries at or above 60% take 0.

# molecule, discrete.label
measured = [
    ("COc1cc(NC(=O)C2=C(N3CCOCC3)/C(=C/c3ccc(Cl)cc3)CC2)cc(OC)c1OC", 0),
    ("COc1cc(-c2csc(NC(=O)Nc3ccc(Cl)c(C(F)(F)F)c3)n2)cc(OC)c1OC", 1),
    ("C#CCOc1c(OC)cc(C(=O)/C(C)=C/c2cccc(N=[N+]=[N-])c2)cc1OC", 1),
    ("O=C1C=C(Nc2cccc(Br)c2)c2ccccc2C1=O", 1),
    ("C=C1CCC2(C#N)[C@H]3[C@H](CC[C@@H]2C)[C@@H](C)C[C@@H](CC(C)(C)NC(=O)CN2CCC2=O)[C@H]13 (some centres not stated)", 0),
    ("CC(C)c1ccc(C(C)C(=O)N(CC2=C(C(C)c3ccccn3)c3ccccc3C2)C(C)C)cc1 (configuration not stated)", 1),
    ("CO[C@H]1CC(O[C@@H]2/C(C)=C/C[C@@H]3C[C@@H](C[C@]4(C=C[C@H](C)[C@@H](C5CCCCC5)O4)O3)OC(=O)[C@@H]3C=C(C)[C@@H](O)[C@H]4OC/C(=C\\C=C\\[C@@H]2C)[C@]43O)O[C@@H](C)C1O[C@H]1C[C@H](OC)[C@@H](O)[C@H](C)O1 (some centres not stated)", 1),
]

----------
tested on: CAKI-1 renal; assay: NCI-60 one-dose screen, 48 h (100 = growth as untreated, 0 = no growth, -100 = all killed); settings: 10 µM
The panel holds about 83,000 compounds, 20% with a hit somewhere; the sample as a whole holds those more often.
As shown below, each of these compounds has a reported growth value.
assay.endpoint: growth (%)

# smiles.repr, system.under.test, units.symbol, readout.number
measured = [
    ("O=C1/C(=C/c2ccc([N+](=O)[O-])s2)Oc2cc(Cl)ccc21", "CAKI-1 renal", "%", 52.8),
    ("COc1ccc(-c2n[nH]nc2-c2cc(OC)c3c(c2OC)OCO3)cc1", "CAKI-1 renal", "%", 27.2),
    ("NC1=CC(=O)C(=O)c2cccnc21", "CAKI-1 renal", "%", 83.1),
    ("O=C(CI)OCC(COC(=O)CI)OC(=O)CI", "CAKI-1 renal", "%", -17.6),
    ("NS(=O)(=O)Oc1ccc2c(ccn2C(=O)C23CC4CC(CC(C4)C2)C3)c1", "CAKI-1 renal", "%", 94.4),
    ("COc1ccc(N(C)c2ncnc3occ(C)c23)cc1", "CAKI-1 renal", "%", -6.13),
    ("O=C(Nc1ccc(NS(=O)(=O)c2ccc(F)cc2)cc1)C12CC3CC(CC(C3)C1)C2", "CAKI-1 renal", "%", 86),
    ("COC(=O)c1c[nH]c2cc(OC(C)C)c(OC(C)C)cc2c1=O", "CAKI-1 renal", "%", 97.2),
    ("CS(=O)(=O)c1nccc(-c2c(-c3cccc(OCc4ccccc4)c3)nc3sccn23)n1", "CAKI-1 renal", "%", 44.2),
    ("Clc1nc2ccc(Br)cc2cc1-c1nc2ccccc2[nH]1", "CAKI-1 renal", "%", 84.2),
    ("COc1cc(C(=O)/C(C)=C/c2c[nH]c3ccccc23)cc(OC)c1OC", "CAKI-1 renal", "%", 34.1),
]

----------
system: A549/ATCC NSCLC; experiment: NCI-60 one-dose screen, 48 h; settings: 10 µM
The panel holds about 83,000 compounds, 20% with a hit somewhere; the sample as a whole holds those more often. Calls of active or inactive are those of the source. Rule for the calls: active = growth percent below 10; inactive = the rest.
Outcomes: active, inactive

# compound, discrete.label
rows = [
    ("COc1ccc(-c2n[nH]nc2-c2cc(OC)c3c(c2OC)OCO3)cc1", "inactive"),
    ("N#Cc1cnn(C(=O)c2nn(-c3ccc(Cl)cc3)cc2O)c1N", "inactive"),
    ("Nc1nc(Cn2c(-c3nonc3N)nc3ccccc32)nc(N2CCCCC2)n1", "inactive"),
    ("CCOC(=O)c1cc(C(=O)c2cc(OC)c(OC)c(OC)c2)n2ccc(-c3cc[n+](CC(=O)c4cc(OC)c(OC)c(OC)c4)cc3)cc12", "inactive"),
    ("CCn1c(SCc2ccc(C)cc2)nnc1-c1nn(-c2ccc(Cl)cc2Cl)c(-c2ccc(Cl)cc2)c1C", "active"),
    ("CN(C)c1nc(N)c2nccnc2n1", "inactive"),
    ("CCC1NC(=O)c2cc(S(N)(=O)=O)c(Cl)cc2N1 (stereo unspecified)", "inactive"),
    ("COc1cc(C2C(C#N)=C(N)Oc3cc(O)ccc32)cc(OC)c1OC (stereo unspecified)", "inactive"),
    ("O=c1[nH]c(=O)n(C2C[C@H](O)[C@@H](CO)O2)cc1C(F)(F)F (stereo partly specified)", "inactive"),
    ("NS(=O)(=O)Oc1ccc(-c2ccc3sccc3c2)cc1", "inactive"),
    ("C=CCN(CC=C)C(=O)[C@H](CC)[C@@H]1CC[C@@H](C)[C@@H]([C@H](C)[C@@H](O)[C@@H](C)C(=O)[C@H](CC)C2O[C@]3(C=C[C@@H](O)[C@]4(CC[C@@](C)([C@H]5CC[C@](O)(CC)[C@H](C)O5)O4)O3)[C@H](C)C[C@@H]2C)O1 (stereo partly specified)", "inactive"),
    ("Brc1ccc2c(c1)-c1ccccc1C1=NCCN12", "active"),
    ("COC1OC(COS(=O)OC)C(O)C(O)C1OS(=O)OC (stereo unspecified)", "inactive"),
    ("CCCCC1(O)CCCCC1", "inactive"),
    ("COc1ccc(C(=O)c2ccccc2CN2C(=O)c3ccccc3C2=O)cc1", "inactive"),
    ("Cc1ccc(C(C)C)c(O)c1NC(=O)OC(C)C", "inactive"),
    ("CCOC(=O)C(C)(c1ccccc1)c1ccccc1", "inactive"),
    ("O=C(Nc1ccc(OCc2nnc(-c3ccc(Cl)cc3)o2)c(F)c1)Nc1ccc(Cl)c(C(F)(F)F)c1", "inactive"),
    ("CCN(CCCNc1cc2c(c(N)c1S(=O)(=O)O)C(=O)c1ccccc1C2=O)c1ccccc1", "inactive"),
    ("CCOC(=O)c1cocc1C(=O)O", "inactive"),
    ("COC(=O)C1OC1c1cc([N+](=O)[O-])ccc1OC (stereo unspecified)", "inactive"),
]
